Biological target: T1, full length human GLP-1R with N-terminal FLAG tag and C-terminal GFP tag, on CHO cells (human, UniProt P43220 24-463)
T1 construct: whole, on cells; the cell line itself is tied to UniProt P43220; also called FLAG-GLP-1R-GFP; CHO-GLP-1R
Test: flow cytometry, GLP1R-expressing CHO cells
MEASURED QUANTITY: Median RL1-H of Expressing Singlets
Answers are plain numbers.

Find the recorded Median RL1-H of Expressing Singlets belonging to GLP1R-3 (antibody, human IgG2, lambda, V domains shown, full length human IgG2; also called GLP1R01-3) VH: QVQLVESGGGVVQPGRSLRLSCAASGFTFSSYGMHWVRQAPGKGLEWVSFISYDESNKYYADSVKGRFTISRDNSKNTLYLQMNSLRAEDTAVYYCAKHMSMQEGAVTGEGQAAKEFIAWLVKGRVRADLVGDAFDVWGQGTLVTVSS VL: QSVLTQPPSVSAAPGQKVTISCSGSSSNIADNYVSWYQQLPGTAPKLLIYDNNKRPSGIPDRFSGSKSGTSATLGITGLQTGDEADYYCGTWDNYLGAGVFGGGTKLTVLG and report it.
232000

Attribution: patent US20250340658A1
